Examples of compounds with documented pIC50 follow.
Tested on: canine erythrocytes
measurementNotes: in vitro
Format: cell-based, dog
testConditions: red cells of canine
pIC50: −log10 of the molar value. Square brackets hold non-standard residues; d marks the D form. Peptide text beside a SMILES is read from it. N(1-naphthylmethyl)Gly = O=C(O)CNCc1cccc2ccccc12; Nphe = O=C(O)CNCc1ccccc1; NBuGly = CCCCNCC(=O)O
measuredParameter: pIC50

compound | assayedTarget | reportedValue
CC(C)C[C@@H](NC(=O)[C@H](CCCCN)NC(=O)[C@H](CCCCN)NC(=O)[C@@H](N)CCCCN)C(=O)N[C@H](Cc1ccc2ccccc2c1)C(=O)N[C@H](Cc1ccc(O)cc1)C(=O)N[C@H](Cc1ccc2ccccc2c1)C(N)=O [Compound 24] (HELM PEPTIDE1{K.K.K.[dL].[O=C([C@@H](Cc1ccc2ccccc2c1)N[*:1])[*:2]].[dY].[O=C([C@@H](Cc1ccc2ccccc2c1)N[*:1])[*:2]].[am]}$$$$V2.0) | canine erythrocytes | < 3.82
CCCCN(CC(=O)N[C@@H](CCCCN)C(=O)N(CC(=O)N(CC(=O)N(CC(N)=O)Cc1cccc2ccccc12)Cc1ccccc1)Cc1cccc2ccccc12)C(=O)[C@H](CCCCN)NC(=O)[C@@H](N)CCCCN [Compound 14] (H-KK[NBuGly]K[N(1-naphthylmethyl)Gly][Nphe][N(1-naphthylmethyl)Gly]-NH2) | canine erythrocytes | < 3.82
CC(C)C[C@@H](NC(=O)[C@@H](Cc1cccc2ccccc12)NC(=O)[C@@H](Cc1ccccc1)NC(=O)[C@H](N)Cc1cccc2ccccc12)C(=O)N[C@@H](CCCCN)C(=O)N[C@@H](CCCCN)C(=O)N[C@@H](CCCCN)C(N)=O [Compound 9] (HELM PEPTIDE1{[N[C@H](Cc1cccc2ccccc12)C(=O)[*:2]].[dF].[O=C([C@@H](Cc1cccc2ccccc12)N[*:1])[*:2]].[dL].K.K.K.[am]}$$$$V2.0) | canine erythrocytes | < 3.82
